The reported measurements were obtained from the supplement of paper PMC13380429.

tested on: Vero E6 infected with SARS-CoV-2; assay: SARS-CoV-2 infection rate relative to infected DMSO; higher = more infection, active = 60 or less; details: 24 h
Measured SARS-CoV-2 infection rate, listed per entry.
Report the value in % with no unit label.

>  <MOLECULE>
NC1=N[C@@]2(c3cc(NC(=O)c4ccc(F)cn4)ccc3F)COC[C@H]2CS1 (10 µM)

>  <ASSAY TARGET>
Vero E6 infected with SARS-CoV-2

>  <SARS-CoV-2 infection rate [%]>
116

$$$$
>  <MOLECULE>
CCCCNc1ncc(-c2ccc(CN3CCOCC3)cn2)c(N[C@H]2CC[C@H](O)CC2)n1 (10 µM)

>  <ASSAY TARGET>
Vero E6 infected with SARS-CoV-2

>  <SARS-CoV-2 infection rate [%]>
113

$$$$

Let us examine a further case.
[ask] Value lookup for SARS-CoV-2 infection rate; key = Cc1[nH]c(=O)c(C#N)cc1-c1ccc2nccn2c1 [olprinone] (10 µM)
[reply] 104

---

tested on: Vero E6 infected with SARS-CoV-2; assay: morphology score (similarity to uninfected cells); higher = more like uninfected cells; details: 24 h
TEST READOUT: morphology score
The answer should be written as a number, with no unit following it.

Some solved entries appear below for comparison.
>  <MOLECULE>
CN(C)C/C=C/C(=O)Nc1cc2c(Nc3ccc(F)c(Cl)c3)ncnc2cc1O[C@H]1CCOC1 [afatinib] (0.833333 µM)

>  <morphology score>
-0.0622

$$$$
>  <MOLECULE>
C[C@H](CCC(=O)O)[C@H]1CC[C@H]2[C@@H]3C(=O)C[C@@H]4CC(=O)CC[C@]4(C)[C@H]3CC(=O)[C@]12C [dehydrocholate-acid] (10 µM)

>  <morphology score>
0.231

$$$$
>  <MOLECULE>
CCOC(=O)c1ccc(OC(=O)CCCCCNC(=N)N)cc1 [gabexate] (10 µM)

>  <morphology score>
0.0775

$$$$

[ask] Value lookup for morphology score; key = CCC[C@H](NC(=O)/C(C#N)=C/c1cccc(Br)n1)c1ccccc1 (0.833333 µM)
[reply] 0.143

---

Measured inhibition of SARS-CoV-2 cytopathic effect, listed per entry.
system: Vero E6 infected with SARS-CoV-2; experiment: inhibition of SARS-CoV-2 cytopathic effect; higher = more antiviral protection, active = above 15; settings: 100 nM; 48 h
Report the value in % with no unit label.

Some solved entries appear below for comparison.
>  <COMPOUND>
CS(=O)(=O)c1ccc([C@@H](CC2CCCC2)C(=O)Nc2nccs2)cc1

>  <RESULT NUMBER>
1.31

$$$$
>  <COMPOUND>
CCc1cc(C(C)=O)c(O)cc1OCCCCCC(C)(C)c1nn[nH]n1

>  <RESULT NUMBER>
0.43

$$$$
>  <COMPOUND>
Cc1cccc(C)c1NC(=O)/N=C1\CCCN1C [xilobam]

>  <RESULT NUMBER>
1.82

$$$$
>  <COMPOUND>
COc1cccc(-c2cc(NCc3ccc4c(c3)OCO4)nc(N)n2)c1

>  <RESULT NUMBER>
0.16

$$$$
>  <COMPOUND>
CCOC(=O)[C@@]1(CCCCCCOc2ccc(Cl)cc2)CO1 [etomoxir]

>  <RESULT NUMBER>
1.79

$$$$

[ask] Value lookup for inhibition of SARS-CoV-2 cytopathic effect; key = CC(NCCc1ccc(O)cc1)C(O)c1ccc(O)cc1 (stereo unspecified) [ritodrine]
[reply] 1.29

[ask] Value lookup for inhibition of SARS-CoV-2 cytopathic effect; key = Cc1cc(Nc2ncnc3ccc(-c4ccc(CNCCS(C)(=O)=O)o4)cc23)ccc1Oc1ccn2ncnc2c1 [HER2-Inhibitor-1]
[reply] -0.2

[ask] Value lookup for inhibition of SARS-CoV-2 cytopathic effect; key = O=C(CCBr)N1CCN(C(=O)CCBr)CC1 [pipobroman]
[reply] -3.06

[ask] Value lookup for inhibition of SARS-CoV-2 cytopathic effect; key = "Cc1ccc2nc(NCCN)c3ncc(C)n3c2c1"
[reply] -2.54

[ask] Value lookup for inhibition of SARS-CoV-2 cytopathic effect; key = Sc1nc2ccccc2s1 [benzo[d]thiazole-2(3H)-thione]
[reply] -0.47

[ask] Value lookup for inhibition of SARS-CoV-2 cytopathic effect; key = CCCCCCCCNC(=O)/C(C#N)=C/c1cn(CCCN(C)C)c2ccccc12 [dynole-34-2]
[reply] 2.72
